Test system: endogenous TFE3
ASSAY TEXT: TFE3 nuclear translocation, immunocytochemistry high-content imaging
Format: cell-based
EXPERIMENTAL CONDITIONS: PKIS2 primary screening
Recorded TFE3 %, one value per entry.

| COMPOUND | SYSTEM TESTED | TFE3 % / % |
| --- | --- | --- |
| Cc1nn2c(=O)cc(N3CCOCC3)nc2n1Cc1cccc(Cl)c1Cl [UNC10225178A] | endogenous TFE3 | 28.29 |
| Nc1ncnc2c1ncn2-c1ccc(Cl)cc1 [UNC10225203A] | endogenous TFE3 | 14.23 |
| Nc1ncc(-c2ccc3nccc(-c4ccncc4)c3c2)cc1S(=O)(=O)N1CCOCC1 [UNC10225011A] | endogenous TFE3 | 1.48 |
| Nc1nc(-c2ccc3c(N)n[nH]c3c2)cc(N2CCC[C@@H](C(=O)Nc3ccccc3)C2)n1 | endogenous TFE3 | 14.08 |
| Cc1nnc(-c2ccc(C)c(-c3ccc(C(=O)O)cc3)c2)o1 [UNC10225501A] | endogenous TFE3 | 10.21 |
| COc1cccc(NC(=O)Nc2ccc(C)c(-c3ccc(C(=O)Nc4ccncc4)cc3)c2)c1 [UNC10225200A] | endogenous TFE3 | 12.37 |
| COC(=O)Nc1nc2ccc(Oc3ccc(NC(=O)Nc4cc(C(F)(F)F)ccc4F)cc3)cc2n1C | endogenous TFE3 | 18.60 |
| CCn1c(-c2cccnc2O)nc2cnccc21 [UNC10225114A] | endogenous TFE3 | 9.51 |
| COc1cccc(CC(=O)N2CCc3cc(-c4cn(C)c5ncnc(N)c45)ccc32)c1 [UNC10224987A] | endogenous TFE3 | 10.50 |

====

Tested on: SH-SY5Y cells
ASSAY TEXT: Nuclear count from microscopy images (cellular growth and toxicity)
EXPERIMENTAL CONDITIONS: PKIS2 primary screening

| COMPOUND | Nuclear Count |
| --- | --- |
| Fc1cccc(COc2ccc(Nc3ncnc4sc(-c5ccc[nH]5)cc34)cc2Cl)c1 [UNC10225101A] | 106.63 |
| CS(=O)(=O)Nc1ccc(-c2ccnc3[nH]ccc23)cc1 [UNC10225427A] | 134.12 |
| CS(=O)(=O)c1ccc(-c2nc3n(c2-c2ccncc2)CCC3)cc1 [UNC10224995A] | 122.53 |
| [2H]C([2H])(c1cccc(C(F)(F)F)c1C)n1ccn2c(=O)nc(N3CCOCC3)cc12 [UNC10243860A] | 110.69 |

====

Recorded DQ Spot, one value per entry.
Tested on: SH-SY5Y cells
EXPERIMENTAL CONDITIONS: PKIS2 primary screening, DQ Red BSA spot count
ENDPOINT NAME: DQ Spot

| MOLECULE | RESULT |
| --- | --- |
| COC(=O)Nc1nc2ccc(Oc3ccc(NC(=O)Nc4cc(C(F)(F)F)ccc4Cl)cc3)cc2[nH]1 | 100.12 |
| Fc1cccc(COc2ccc(Nc3ncnc4sc(-c5ccc[nH]5)cc34)cc2Cl)c1 [UNC10225101A] | 86.09 |
| Nc1nccc2scc(-c3ccc4c(c3)CCN4C(=O)Cc3cc(F)ccc3F)c12 [UNC10225494A] | 108.12 |
| N#Cc1cccc(C(=O)NC2CCN(c3ccnc(Nc4ccc(F)cc4)n3)C2)c1 (centres unmarked) | 112.33 |
| Cc1cccc(-c2nc(C)cc(Nc3ccncc3)n2)n1 | 86.70 |
| Cc1ccc(C)c(NC(=O)NC2CCN(c3ccnc(Nc4ccc(F)cc4)n3)C2)c1 (centres unmarked) | 109.75 |
| CS(=O)(=O)CCNCc1nc(-c2ccc3ncnc(Nc4ccc5c(cnn5Cc5ccccc5)c4)c3c2)cs1.Cl.Cl [UNC10225115A] | 112.81 |
| COC(=O)Nc1nc2ccc(Oc3ccc(NC(=O)Nc4cc(C(F)(F)F)ccc4F)cc3)cc2[nH]1 | 73.16 |
| CC(C)Nc1cc(-c2ccc3c(N)n[nH]c3c2)nc(N)n1 | 81.03 |
| COc1ccc(C[C@@H](CN)NC(=O)c2cc(Br)c(-c3ccnc4[nH]ccc34)s2)cc1.Cl.Cl [UNC10225412A, reference compound] | 119.63 |
| COc1ccc(-c2nc3n(c2-c2ccncc2)CCC3)cc1 [UNC10225334A] | 119.57 |
| O=C(Nc1n[nH]c2cc(-c3cccc(F)c3F)ccc12)C1CC1 | 85.29 |
| COc1cc2ncnc(Nc3ccc(OCc4ccccc4Br)c(Cl)c3)c2cc1OC.Cl [UNC10225261A] | 117.72 |
| COC(=O)Nc1nc2ccc(Oc3ccc(NC(=O)Nc4cc(F)ccc4F)cc3)cc2[nH]1 | 124.31 |
| COc1cc(Nc2nccc(N3CCC(NC(=O)C4COc5ccccc5O4)C3)n2)cc(OC)c1OC (centres unmarked) | 97.75 |
| COc1cccc(NC(=O)NC2CCN(c3ccnc(Nc4cc(OC)c(OC)c(OC)c4)n3)C2)c1 (centres unmarked) | 124.42 |
| CC[C@@H]1CO[C@H](C(=O)Nc2ccccc2)CN1c1cc(-c2ccc3c(N)n[nH]c3c2)nc(NC)n1 | 87.99 |

// provenance: paper PMC9851200
